target: VIM-1 (Pseudomonas aeruginosa, UniProt A0A0F7KYQ8); assay: MBL inhibition, FC-5 fluorescence assay, VIM-1; type: biochemical; conditions: FC-5 cephalosporin substrate, ranges of obtained pIC50, read-out: pIC50 VIM-1 (converted)
Below, each entry is listed with its recorded IC50.

Exercise: Which IC50 reading was recorded for the compound C[C@@H](OCc1ccc(CN)cc1)c1cccc2c(-c3ccc(CS(C)(=O)=O)c(Cl)c3)c(C(=O)O)[nH]c12 (single isomer, unassigned) ?
Solution: > 10 nM

Exercise: Any idea what IC50 was measured for "C[C@@H](c1cccc2c(-c3cn[nH]c(=O)c3)c(C(=O)O)[nH]c12)N1C[C@]2(C[C@@H](CN)C2)OC1=O" ?
Solution: 1 to 10 nM
